- assayOverview: physchem
- conditionContext: apparent pKa, ethanol-based system, 20° C.
observationType: pKa

1) CN1CCCC1c1cccnc1 (stereo not shown) [nicotine, 3-(1-methyl-2-pyrrolidinyl)-pyridine]; ~6.5

====

- assayOverview: physchem
- conditionContext: apparent pKa of nicotine, 90% ethanol, titration curve with sulphuric acid
observationType: pKa

1. CN1CCCC1c1cccnc1 (stereo not shown) [nicotine, 3-(1-methyl-2-pyrrolidinyl)-pyridine]; 6.5
